Biological target: Citron Rho-interacting kinase (Homo sapiens); note: in the data inactive means no Kd found up to 30 µM
Sequence (O14578 whole entry): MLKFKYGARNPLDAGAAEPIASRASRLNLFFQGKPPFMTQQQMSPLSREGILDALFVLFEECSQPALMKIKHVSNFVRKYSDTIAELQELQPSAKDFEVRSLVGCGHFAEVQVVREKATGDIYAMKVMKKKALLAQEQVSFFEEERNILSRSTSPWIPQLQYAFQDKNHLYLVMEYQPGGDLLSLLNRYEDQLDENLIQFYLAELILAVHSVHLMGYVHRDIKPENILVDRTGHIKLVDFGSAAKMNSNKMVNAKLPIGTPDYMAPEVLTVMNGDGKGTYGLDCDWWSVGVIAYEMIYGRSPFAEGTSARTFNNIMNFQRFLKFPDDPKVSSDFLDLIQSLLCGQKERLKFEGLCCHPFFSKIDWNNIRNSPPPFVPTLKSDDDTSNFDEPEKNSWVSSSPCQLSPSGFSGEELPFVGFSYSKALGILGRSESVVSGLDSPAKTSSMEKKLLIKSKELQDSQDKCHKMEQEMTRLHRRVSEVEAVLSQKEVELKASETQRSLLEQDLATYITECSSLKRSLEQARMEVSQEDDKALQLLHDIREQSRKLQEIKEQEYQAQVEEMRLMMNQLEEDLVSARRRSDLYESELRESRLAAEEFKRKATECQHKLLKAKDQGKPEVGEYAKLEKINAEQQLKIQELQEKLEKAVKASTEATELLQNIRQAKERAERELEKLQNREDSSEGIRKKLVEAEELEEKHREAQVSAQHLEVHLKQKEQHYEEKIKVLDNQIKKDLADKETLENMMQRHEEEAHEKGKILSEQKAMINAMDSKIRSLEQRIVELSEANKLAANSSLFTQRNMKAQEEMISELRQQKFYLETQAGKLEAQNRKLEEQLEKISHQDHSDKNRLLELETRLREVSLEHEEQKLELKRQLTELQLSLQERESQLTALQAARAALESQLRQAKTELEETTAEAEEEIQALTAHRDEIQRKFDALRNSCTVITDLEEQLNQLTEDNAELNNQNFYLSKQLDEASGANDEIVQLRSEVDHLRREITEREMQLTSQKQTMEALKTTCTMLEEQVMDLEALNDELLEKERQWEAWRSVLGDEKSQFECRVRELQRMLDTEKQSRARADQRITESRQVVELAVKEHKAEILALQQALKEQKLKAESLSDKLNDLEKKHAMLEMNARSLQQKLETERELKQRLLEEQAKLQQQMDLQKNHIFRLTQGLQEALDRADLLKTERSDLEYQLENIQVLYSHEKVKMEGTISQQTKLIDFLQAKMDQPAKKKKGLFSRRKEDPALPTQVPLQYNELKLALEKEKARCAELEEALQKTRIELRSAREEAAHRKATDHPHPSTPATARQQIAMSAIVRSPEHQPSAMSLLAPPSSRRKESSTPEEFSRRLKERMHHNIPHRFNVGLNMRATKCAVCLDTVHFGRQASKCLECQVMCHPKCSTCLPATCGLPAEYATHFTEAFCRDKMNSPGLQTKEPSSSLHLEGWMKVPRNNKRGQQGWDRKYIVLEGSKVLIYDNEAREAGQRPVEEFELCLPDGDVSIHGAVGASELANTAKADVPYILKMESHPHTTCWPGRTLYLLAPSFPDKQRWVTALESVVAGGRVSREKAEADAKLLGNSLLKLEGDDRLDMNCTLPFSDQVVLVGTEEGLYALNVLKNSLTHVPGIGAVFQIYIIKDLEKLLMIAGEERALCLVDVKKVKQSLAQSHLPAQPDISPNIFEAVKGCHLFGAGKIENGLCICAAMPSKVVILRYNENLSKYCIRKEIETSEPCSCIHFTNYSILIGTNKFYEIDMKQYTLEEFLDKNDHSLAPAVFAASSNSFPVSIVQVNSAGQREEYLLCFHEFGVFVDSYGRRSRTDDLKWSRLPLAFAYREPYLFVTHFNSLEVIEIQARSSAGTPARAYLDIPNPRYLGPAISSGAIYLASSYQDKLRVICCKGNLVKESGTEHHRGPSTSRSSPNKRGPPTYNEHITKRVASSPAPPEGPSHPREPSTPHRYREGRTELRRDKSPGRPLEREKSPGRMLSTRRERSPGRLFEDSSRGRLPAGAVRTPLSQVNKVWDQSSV
Active and inactive are the calls of the source.
Labels: true (active), false (inactive)

>>> cat("CCN1CCN(Cc2ccc(Nc3ncc(F)c(-c4cc(F)c5nc(C)n(C(C)C)c5c4)n3)nc2)CC1 [ABEMACICLIB]")
"true"
>>> cat("C=CCn1c(=O)c2cnc(Nc3ccc(N4CCN(C)CC4)cc3)nc2n1-c1cccc(C(C)(C)O)n1 [ADAVOSERTIB]")
"false"
>>> cat("Cc1ccc(C(=O)Nc2ccc(Oc3cc4cnn(C)c4cc3-c3cn[nH]c3)c(F)c2)c(=O)n1-c1ccc(F)cc1 [MERESTINIB]")
"false"
>>> cat("Cc1cc(-c2cc(OC(=O)c3ccccc3)ccc2Cl)cc2nnc(Nc3ccc(OCCN4CCCC4)cc3)nc12 [TG100-801]")
"false"
>>> cat("COc1cc2ncnc(Nc3ccc(F)c(Cl)c3)c2cc1NC(=O)/C=C/CN1CCCCC1 [DACOMITINIB ANHYDROUS]")
"false"

----------
Protein target, amino acids: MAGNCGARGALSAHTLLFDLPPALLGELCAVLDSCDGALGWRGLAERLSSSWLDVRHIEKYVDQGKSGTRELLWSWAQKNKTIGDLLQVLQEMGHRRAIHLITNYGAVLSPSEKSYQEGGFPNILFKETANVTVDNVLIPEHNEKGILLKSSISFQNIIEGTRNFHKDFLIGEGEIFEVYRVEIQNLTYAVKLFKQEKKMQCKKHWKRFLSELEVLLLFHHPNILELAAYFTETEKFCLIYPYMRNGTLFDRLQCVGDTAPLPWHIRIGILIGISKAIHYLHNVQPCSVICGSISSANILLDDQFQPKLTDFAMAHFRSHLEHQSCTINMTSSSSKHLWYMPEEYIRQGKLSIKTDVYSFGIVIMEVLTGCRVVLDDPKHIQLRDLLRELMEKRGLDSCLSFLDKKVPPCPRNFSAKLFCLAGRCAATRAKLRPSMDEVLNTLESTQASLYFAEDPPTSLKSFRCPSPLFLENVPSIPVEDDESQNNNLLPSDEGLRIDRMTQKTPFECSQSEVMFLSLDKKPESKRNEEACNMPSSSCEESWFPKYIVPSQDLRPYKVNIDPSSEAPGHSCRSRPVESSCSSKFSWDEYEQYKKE
Active and inactive are the calls of the source.
Labels: 1 for active, -1 for inactive

>>> cat("Cc1cc(-c2cc(OC(=O)c3ccccc3)ccc2Cl)cc2nnc(Nc3ccc(OCCN4CCCC4)cc3)nc12 [TG100-801]")
-1
>>> cat("COCCN1CCN(Cc2ccc(-c3n[nH]c4c3C(=O)c3c(NC(=O)NN5CCOCC5)cccc3-4)cc2)CC1 [RGB-286638]")
-1
>>> cat("Cn1c(=O)n(-c2ccc(C(C)(C)C#N)cc2)c2c3cc(-c4cnc5ccccc5c4)ccc3ncc21 [DACTOLISIB]")
-1
>>> cat("O=c1[nH]c([C@@H]2CCCN2)nc2c1oc1ccc(Cl)cc12")
-1
>>> cat("COc1cccc2cc(-c3nc([C@H]4CC[C@H](C(=O)O)CC4)n4ncnc(N)c34)[nH]c12 [OSI-027]")
-1
>>> cat("NC(=O)c1ccc(N(C(N)=O)c2c(F)cccc2F)nc1-c1ccc(F)cc1F [VX-702]")
-1
>>> cat("CN(c1ncccc1CNc1nc(Nc2ccc3c(c2)CC(=O)N3)ncc1C(F)(F)F)S(C)(=O)=O [PF-00562271]")
-1
>>> cat("COc1cc(Nc2ncc(F)c(Nc3ccc4c(n3)N(COP(=O)(O)O)C(=O)C(C)(C)O4)n2)cc(OC)c1OC [FOSTAMATINIB]")
1

----------
Molecular target: Mitogen-activated protein kinase 1 (Homo sapiens, UniProt P28482); note: in the data inactive means no Kd found up to 30 µM
Sequence (P28482 whole entry): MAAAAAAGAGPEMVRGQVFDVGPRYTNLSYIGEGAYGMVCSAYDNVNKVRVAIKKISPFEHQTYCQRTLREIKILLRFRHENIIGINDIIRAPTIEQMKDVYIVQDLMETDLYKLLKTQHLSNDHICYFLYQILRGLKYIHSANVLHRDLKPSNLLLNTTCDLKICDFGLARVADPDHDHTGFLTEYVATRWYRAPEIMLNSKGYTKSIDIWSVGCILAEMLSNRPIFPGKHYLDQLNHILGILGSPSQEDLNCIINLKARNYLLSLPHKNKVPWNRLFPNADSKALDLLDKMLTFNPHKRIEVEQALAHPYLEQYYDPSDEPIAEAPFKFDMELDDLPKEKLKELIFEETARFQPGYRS
Active and inactive are the calls of the source.
Labels: T = active, F = inactive

>>> cat("C=CC(=O)Nc1cc(Nc2nccc(-c3cn(C)c4ccccc34)n2)c(OC)cc1N(C)CCN(C)C")
"F"
>>> cat("COc1ccc2c(OCc3nnc4ccc(-c5ccccc5)nn34)ccnc2c1")
"F"
>>> cat("CCN1CCN(Cc2ccc(Nc3ncc(F)c(-c4cc(F)c5nc(C)n(C(C)C)c5c4)n3)nc2)CC1")
"F"
>>> cat("FC(F)(F)c1ccc(CNc2ccc(Cc3c[nH]c4ncc(Cl)cc34)cn2)cn1")
"F"
>>> cat("O[C@H]1CC[C@H](Nc2ncc3nc(Nc4c(F)cc(F)cc4F)n([C@H]4CCOC4)c3n2)CC1")
"T"
>>> cat("O=c1[nH]c([C@@H]2CCCN2)nc2c1oc1ccc(Cl)cc12")
"F"
>>> cat("C#Cc1cccc(Nc2ncnc3cc4c(cc23)OCCOCCOCCO4)c1")
"F"
>>> cat("CCc1nc(C(N)=O)c(Nc2ccc(N3CCC(N4CCN(C)CC4)CC3)c(OC)c2)nc1NC1CCOCC1")
"F"
>>> cat("Cn1cc(-c2[nH]c3cc(NC(=O)[C@H](N)C4CCCCC4)cc4c3c2C=NNC4=O)cn1")
"F"
>>> cat("CC[C@@](C)(Nc1ccnc(-c2c[nH]c3ncccc23)n1)C(=O)NCC(F)(F)F")
"F"
>>> cat("CNC(=O)c1cccc(-c2ccc3c(N4CCOC[C@@H]4C)nc(N4CCOC[C@@H]4C)nc3n2)c1")
"F"

----------
Biological target: Dual specificity protein kinase CLK3 (Homo sapiens, UniProt P49761); note: in the data inactive means no Kd found up to 30 µM
Sequence (P49761 whole entry): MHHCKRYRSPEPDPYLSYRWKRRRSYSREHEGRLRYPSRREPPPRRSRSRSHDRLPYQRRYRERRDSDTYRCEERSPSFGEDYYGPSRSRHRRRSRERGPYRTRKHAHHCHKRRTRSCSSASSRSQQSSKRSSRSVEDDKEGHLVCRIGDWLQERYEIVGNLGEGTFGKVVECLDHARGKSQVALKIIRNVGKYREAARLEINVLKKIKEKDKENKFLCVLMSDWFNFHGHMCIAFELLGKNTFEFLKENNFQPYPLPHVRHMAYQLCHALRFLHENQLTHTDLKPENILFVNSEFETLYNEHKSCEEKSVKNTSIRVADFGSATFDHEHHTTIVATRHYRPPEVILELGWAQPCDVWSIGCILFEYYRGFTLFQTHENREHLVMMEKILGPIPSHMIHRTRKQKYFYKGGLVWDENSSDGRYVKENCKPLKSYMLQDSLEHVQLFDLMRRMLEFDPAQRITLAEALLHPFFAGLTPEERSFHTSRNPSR
Format: subcellular, K-562, COLO 205, SK-N-BE(2) and MV-4-11, Cell lysate
Conditions: read-out: Kd apparent; note: in the data inactive means no Kd found up to 30 µM
Activity calls are given as the source filed them.
Labels: 1.0 = active, 0.0 = inactive

>>> cat("CCN1CCN(Cc2ccc(Nc3ncc(F)c(-c4cc(F)c5nc(C)n(C(C)C)c5c4)n3)nc2)CC1 [ABEMACICLIB]")
0.0
>>> cat("CN(c1ncccc1CNc1nc(Nc2ccc3c(c2)CC(=O)N3)ncc1C(F)(F)F)S(C)(=O)=O [PF-00562271]")
0.0
>>> cat("O=C(NC[C@H](O)CO)c1ccncc1Nc1ccc(I)cc1F [PIMASERTIB]")
0.0
>>> cat("Cc1cc(Nc2nc(N[C@@H](C)c3ncc(F)cn3)ncc2Cl)n[nH]1 [AZD-1480]")
0.0
>>> cat("Cc1ccc(C(=O)Nc2ccc(Oc3cc4cnn(C)c4cc3-c3cn[nH]c3)c(F)c2)c(=O)n1-c1ccc(F)cc1 [MERESTINIB]")
0.0
>>> cat("COCCN1CCN(Cc2ccc(-c3n[nH]c4c3C(=O)c3c(NC(=O)NN5CCOCC5)cccc3-4)cc2)CC1 [RGB-286638]")
0.0
>>> cat("O=C(O)c1ccc2c(c1)nc(Nc1cccc(Cl)c1)c1ccncc12 [SILMITASERTIB]")
1.0
>>> cat("CC1(COc2ccc3c(c2)ncn3-c2ccc3cccc(N4CCC(N)CC4)c3n2)COC1 [CRENOLANIB]")
0.0

----------
Target: Mitogen-activated protein kinase 3 (Homo sapiens, UniProt P27361); note: in the data inactive means no Kd found up to 30 µM
Sequence (P27361 whole entry): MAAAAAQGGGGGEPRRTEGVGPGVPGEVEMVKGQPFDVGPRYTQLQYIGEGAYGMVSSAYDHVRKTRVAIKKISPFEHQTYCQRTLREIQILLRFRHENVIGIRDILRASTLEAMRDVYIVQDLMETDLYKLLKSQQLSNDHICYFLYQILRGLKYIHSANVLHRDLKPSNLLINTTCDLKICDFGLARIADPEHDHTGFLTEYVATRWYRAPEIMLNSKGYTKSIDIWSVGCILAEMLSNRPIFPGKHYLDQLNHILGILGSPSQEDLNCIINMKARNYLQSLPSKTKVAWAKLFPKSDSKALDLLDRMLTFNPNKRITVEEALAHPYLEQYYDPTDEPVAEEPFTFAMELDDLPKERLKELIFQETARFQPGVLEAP
The source made the active and inactive calls.
Labels: active, inactive

>>> cat("C=CCN(/C=C1/C(=O)O[C@H](COC)[C@@]2(C)C1=C(O)C(=O)C1=C2[C@H](OC(C)=O)C[C@]2(C)C(=O)CC[C@@H]12)CC=C")
"inactive"
>>> cat("C[C@@H]1COC(Nc2ccc3ncnc(Nc4ccc(OCc5nccs5)c(Cl)c4)c3c2)=N1")
"inactive"
>>> cat("O=c1[nH]c([C@@H]2CCCN2)nc2c1oc1ccc(Cl)cc12")
"inactive"
>>> cat("CCc1nc(C(N)=O)c(Nc2ccc(N3CCC(N4CCN(C)CC4)CC3)c(OC)c2)nc1NC1CCOCC1")
"inactive"
>>> cat("O=S(=O)(c1cccc2cnccc12)N1CCCNCC1")
"inactive"
>>> cat("O=S(=O)(c1cccc2c(O)nccc12)N1CCCNCC1 [HYDROXYFASUDIL]")
"inactive"
>>> cat("C=CC(=O)Nc1cc(Nc2nccc(-c3cn(C)c4ccccc34)n2)c(OC)cc1N(C)CCN(C)C")
"inactive"
>>> cat("COc1cc(Nc2ncc(F)c(Nc3ccc4c(n3)N(COP(=O)(O)O)C(=O)C(C)(C)O4)n2)cc(OC)c1OC")
"inactive"
>>> cat("CNC(=O)c1cc(COc2nnc(Nc3ccc(Cl)cc3)c3ccoc23)ccn1")
"inactive"
>>> cat("FC(F)(F)c1ccc(CNc2ccc(Cc3c[nH]c4ncc(Cl)cc34)cn2)cn1")
"inactive"
>>> cat("COc1ccc2c(OCc3nnc4ccc(-c5ccccc5)nn34)ccnc2c1")
"inactive"
>>> cat("COCCN1CCN(Cc2ccc(-c3n[nH]c4c3C(=O)c3c(NC(=O)NN5CCOCC5)cccc3-4)cc2)CC1")
"inactive"
>>> cat("Cc1cc(Nc2nc(N[C@@H](C)c3ncc(F)cn3)ncc2Cl)n[nH]1")
"inactive"
>>> cat("Cc1c(NC(=O)OC[C@@H]2COCCN2)cn2ncnc(Nc3ccc4c(cnn4Cc4cccc(F)c4)c3)c12")
"inactive"
>>> cat("COc1cc2nccc(Oc3ccc(NC(=O)C4(C(=O)Nc5ccc(F)cc5)CC4)cc3)c2cc1OC [CABOZANTINIB]")
"inactive"
>>> cat("O[C@H]1CC[C@H](Nc2ncc3nc(Nc4c(F)cc(F)cc4F)n([C@H]4CCOC4)c3n2)CC1")
"active"
